Answer each item with its documented GI50.
System: UACC-62 melanoma
PROCEDURE_DETAILS: NCI tumour cell line growth inhibition, 48 h

{"COMPOUND": "C[C@]12CC[C@@H]3c4ccc(O)c([N+](=O)[O-])c4CC[C@H]3[C@@H]1CC[C@@H]2NS(=O)(=O)c1cccc(Br)c1", "GI50": "1.6 µM"}
{"COMPOUND": "O=c1[nH]c(=O)n([C@H]2CCCO2)cc1F", "GI50": "2040 µM"}
{"COMPOUND": "C=CCN1CC2CON(C(=O)C(OC)(c3ccccc3)C(F)(F)F)C2C1C(C)C (configuration not stated)", "GI50": "45.1 µg/mL"}
{"COMPOUND": "COc1ccc(-c2csc(NC(=O)CSc3nc(C)c(-c4ccccc4)n3Nc3ccccc3)n2)cc1", "GI50": "7.35 µM"}
{"COMPOUND": "O=C(Nc1ccc(Cl)c(Cl)c1)Nc1ccccc1O", "GI50": "5.12 µM"}
{"COMPOUND": "COc1ccc2c(Oc3ccc(NC(=O)c4c(C)n(CC(C)(C)O)n(-c5ccccc5)c4=O)nc3)ccnc2c1", "GI50": "6.14 µM"}

Attention now shifts to the item below.
The value of GI50 measured for the compound COc1ccc2c(c1)C(C)Cc1c(ncnc1-n1cnc3cc(C)ccc31)N2C (configuration not stated) turned out to be 0.0436 µM

====

Test system: UACC-62 melanoma
PROCEDURE_DETAILS: NCI tumour cell line growth inhibition, 48 h
Give measured log10 of TGI for each item. Keep answers brief.
Friendly reminder: values = log10 of TGI, unit µM.

Each compound below has a recorded value; state its log10 of TGI.
1. COC(=O)c1cc(/C=C/c2ccc(S(N)(=O)=O)cc2)ccc1O
2. COC(=O)C1=C(C)NC(C)=C([N+](=O)[O-])C1c1cccc(N=O)c1 (stereo unspecified)
3. Clc1ccc(Cl)c(SCCCN2CCNCC2)c1
4. CCCCCCCCCCN1CCC(N2CCCCC2)CC1
5. COc1ccc(N=C2C(=S)N(c3ccc(OC)cc3)/C(=N/S(=O)(=O)c3ccccc3)N2c2ccccc2)cc1

Reply:
[1.82, 1.46, 0.89, 0.53, 1.21]

====

Kindly state TGI for each of the entries shown.
Test system: BT-549 breast
PROCEDURE_DETAILS: NCI tumour cell line growth inhibition, 48 h

Solved cases below.
{"COMPOUND": "COC(=O)[C@H](Cc1ccccc1)NC(=O)c1ccc(CNC(=O)/C=C/c2cccc(Oc3ccccc3)c2)cc1", "STUDY_TARGET": "BT-549 breast", "MEASURED": "> 100 µM"}
{"COMPOUND": "Cc1cn([C@H]2C[C@](C)(CO)N(C)O2)c(=O)[nH]c1=O", "STUDY_TARGET": "BT-549 breast", "MEASURED": "> 100 µM"}
{"COMPOUND": "COC(=O)c1cc(C)ccc1CC(Cc1ccc(C)cc1)C(=O)OC (stereo not drawn)", "STUDY_TARGET": "BT-549 breast", "MEASURED": "> 100 µM"}
{"COMPOUND": "CC1=C[C@@H](C)C[C@]2(C)CC[C@H](O2)[C@]23CC[C@](C(=O)O)(C[C@H](O2)[C@@H]2O[C@@](C)(CC2=O)[C@@H](O)[C@H]2CC[C@@]4(CCC[C@@H](O4)[C@H](C)C(=O)O[C@H]4C[C@H]([C@]5(O)OCC[C@H](C)[C@@H]5O)O[C@H]4C=C1)O2)O3", "STUDY_TARGET": "BT-549 breast", "MEASURED": "> 10 µM"}
{"COMPOUND": "CO/N=C(/C)c1cccc(Nc2cc(-c3ccccc3)nc3ccc(OC)cc23)c1", "STUDY_TARGET": "BT-549 breast", "MEASURED": "46.6 µM"}

For every record below, what is its TGI?
1. c1ccc(C2=Nn3c(CCCCCCCCc4nnc5n4N=C(c4ccccc4)CS5)nnc3SC2)cc1
2. O=C(O)CSC(NC(=O)C(C(F)(F)F)C(F)(F)F)(C(F)(F)F)C(F)(F)F
3. Cc1cn2c(C)csc2c1P(=O)(OC(C)C)OC(C)C
4. COc1cc([C@@H]2c3cc4c(cc3[C@@H](c3c(O)cc(O)c5c3O[C@H](c3ccc(O)c(O)c3)[C@@H](O)C5)[C@H]3COC(=O)[C@H]23)OCO4)cc(OC)c1O
5. O=C(NCc1ccc(S(=O)(=O)c2cc(F)cc(F)c2)cc1)c1ccc2nccn2c1
6. COc1ccc(N=C2C(=S)N(c3ccc(OC)cc3)/C(=N/S(=O)(=O)c3ccccc3)N2c2ccccc2)cc1
7. c1ccc(-c2cnc(-c3ccc(-c4ncc(-c5ccccc5)o4)cc3)o2)cc1

Reply:
1: > 100 µM; 2: > 100 µM; 3: > 100 µM; 4: > 100 µM; 5: 12.1 µM; 6: 11.2 µM; 7: > 100 µM
